# System: K-562
# assayDetails: cell viability (% survival relative to DMSO control, bortezomib = 0%); higher = less cytotoxic
# cond: 10 nM; 72 h
measurementName: cell viability (%)
The figure you give is taken to be in %; do not add the unit.

Previously resolved entries follow.
C1CCC(C(CC2CCCCN2)C2CCCCC2)CC1.O=C(O)/C=C\C(=O)O (stereo not drawn) [Perhexiline] : 97.3
CCOc1ccc(Cc2cc([C@@H]3O[C@H](CO)[C@@H](O)[C@H](O)[C@H]3O)ccc2Cl)cc1 [Dapagliflozin] : 108
COc1cc2c(NC3CCN(C)CC3)nc(N3CCCN(C)CC3)nc2cc1OCCCN(C)C [UNC0224] : 106

Which value of cell viability has been reported for CCN(CC)CCN(Cc1ccc(-c2ccc(C(F)(F)F)cc2)cc1)C(=O)Cn1c(SCc2ccc(F)cc2)nc(=O)c2c1CCC2 [Darapladib] in the records? 122

Quick check: cell viability of O=C(O)C(Cl)Cl [Dichloroacetate] ? 108

// query cell viability value for entry Nc1ncnc2c1ncn2[C@@H]1O[C@H](CSCC[C@H](N)C(=O)O)[C@@H](O)[C@H]1O [S-Adenosyl Homocysteine] 104

What does the data say about its cell viability? Entry: Sc1ncnc2nc[nH]c12 [6-mercaptopurine] 88.9

Item under review: O=C(O)c1nn(Cc2ccc(Cl)cc2Cl)c2ccccc12 [Lonidamine] . Reported cell viability? 104

* * *

# Tested on: THP-1
# assayDetails: cell viability (% survival relative to DMSO control, bortezomib = 0%); higher = less cytotoxic
# cond: 1 nM; 72 h
measurementName: cell viability (%)
Output spec: scalar in %, unitless text.

O=C1Nc2ccccc2/C1=C\NCCc1ccc(O)c(O)c1 [AC1NZZMF] : 108
Oc1cc(Cl)ccc1Oc1ccc(Cl)cc1Cl [Triclosan] : 92.7

I have this molecule here, C=CCc1ccc2c(c1O)C(=O)c1ccccc1C2=O [R162] , and I need its recorded cell viability. 101

I would be grateful if you could share the reported cell viability for CC12CCC(O)CC1CCC1C2CCC2(C)C(C3=CC(=O)OC3)CCC12O (stereo not drawn) [Digitoxigenin] . 108

Query: cell viability; subject: CCOC(=O)[C@@]1(CCCCCCOc2ccc(Cl)cc2)CO1 [Etomoxir] 98.3

// returns reported cell viability for input C#Cc1cnc(O)nc1O [Eniluracil] 97.4

Requested read-out: cell viability. Entry: C[C@]12O[C@H](C[C@]1(O)CO)n1c3ccccc3c3c4c(c5c6ccccc6n2c5c31)CNC4=O [Lestaurtinib] 94.4

Sample Cc1c(-c2ccccc2)oc2c(C(=O)OCCN3CCCCC3)cccc2c1=O.Cl [Flavoxate] — what was its cell viability? 93.5

What value of cell viability has been reported for the following molecule? OCCN1CCN(CCCN2c3ccccc3Sc3ccc(Cl)cc32)CC1 [Perphenazine] 95.7

For the molecule N[C@](CCCCB(O)O)(CCN1CCCCC1)C(=O)O [Arginase inhibitor 1] , what cell viability is on record? 105

Could you tell me which cell viability is on file for CCN(CC)CCN(Cc1ccc(-c2ccc(C(F)(F)F)cc2)cc1)C(=O)Cn1c(SCc2ccc(F)cc2)nc(=O)c2c1CCC2 [Darapladib] ? 107

Requested read-out: cell viability. Entry: O=C(O)c1nn(Cc2ccc(Cl)cc2Cl)c2ccccc12 [Lonidamine] 107

Which cell viability value belongs to O=C(O)CC[C@H](NC(=O)c1ccc([N+](=O)[O-])cc1)C(=O)O [(S)-2-(4-Nitrobenzamido)pentanedioic acid] ? 102
